Tested on: SARS-CoV-2 (WK-521)
Test: microbe, parasite or virus in culture
Format: cell-based
Conditions: Severe acute respiratory syndrome coronavirus 2, HEK-293T, 72 h; read-out: IC50 (concentration of agent which reduces viral production and replication by 50%)
value_type: pIC50
Just the number, please; pIC50 means minus log10 of the concentration in mol/L.

CCCCn1c(=O)c2ccc(NCCN)cc2c2cc(C(O)(C(F)(F)F)C(F)(F)F)ccc21 = 6.12
CCCCn1c(=O)c2ccc(NCC(O)CO)cc2c2cc(C(O)(C(F)(F)F)C(F)(F)F)ccc21 (stereo not shown) = 6.24
CCCCn1c(=O)c2ccc(NC(=O)[C@H]3CC(O)CN3)cc2c2cc(C(O)(C(F)(F)F)C(F)(F)F)ccc21 (stereo partly shown) = 7.23

Query :: pIC50 for "CCCCn1c(=O)c2cc(F)c(N)cc2c2cc(C(O)(C(F)(F)F)C(F)(F)F)ccc21" ?
Result :: 6.03

Query :: And for "CCCCn1c(=O)c2ccc(NC(=O)[C@H](N)CO)cc2c2cc(C(O)(C(F)(F)F)C(F)(F)F)ccc21" ?
Result :: 6.15

Query :: Please do the same for "CCCn1c(=O)c2ccc(NCCO)cc2c2cc(C(O)(C(F)(F)F)C(F)(F)F)ccc21" as well.
Result :: 6.14
